// provenance: patent US20250034594A1

Could you please report measured Cas9 with SSAP activity (normalized) for the items listed next?
- Tested on: gene editing with Cas9
- Test name: Screen of 322 new SSAP proteins, gene editing activity with Cas9 (Table 5)
- Assay type: cell-based
- Run conditions: normalized
Answers are plain numbers.

Molecule	Cas9 with SSAP activity (normalized)
SSAP_146: SEQ ID NO: 315; Mobilisporobacter senegalensis (protein, listed as Mobilisporobacter senegalensis) KDIKSALEKKVDKQDVKLTKSMSITDMIKALEPEIKKALPSVITPERFTRMALSAVNNTPKLAECSQMSFLAALMNAAQLGLEPNTSLGQAYLIPYQNKGKLECQFQLGFKGMIDLVYRNEKVQTIQAHCVYEEDYFEYELGLDSKLAHKPALANRGKMILVYAFFKLENGGFGFEVMSKEDIDIHALKYSKGYSSQYSPWKSNYEDMAKKTVIKKVLKYAPLKIDFQRAISVDETVKAEISIDMSEVQNEEIIDGQCTDVGEIEEK	−2.428
SSAP_262: SEQ ID NO: 431; YqaK Schleiferilactobacillus shenzhenensis LY-73 (protein, listed as Schleiferilactobacillus shenzhenensis) SAVSESKDLQHVDQLSVLNSAMTAASLNLPINQNLGFFYLVPYKGIAQAQMGYKGYIQLAQRSGQYQRLNAIPVYADEFGSWNPLTEELDYTPHFEDRKASDKPVGYVGFFKLANGFEKTVYWSRKQIEAHRDRFSKSSKSSASPWNTDFDAMALKTVLRNLITKWGPMTTDIQRANDADEGDYKNDLSTDTSEPKDVTPGASLEQFLGETDQQQKPATKPAPKKKAEEAKPNDLKPDVTHDPNEHTEQTSLSDDDLPFD	−0.511
SSAP_232: SEQ ID NO: 401; Lactococcus fujiensis JCM 16395 (protein, listed as Lactococcus fujiensis) KSAPVQARFQEVLGKKSSGFVSSLLTVVNNNNLLKRATPDSIMTAAMKAATLDLPIEPSLGFAYIIPYGQEAQFQIGYKGLIQLALRSGQITGLNSGIVYKSQFISYDPLFEELEIDFMQPEDEVVGYFASMKLSNGFMKVVYWTKARVENHKKRFSKAGAKSPWATDFDAMAQKTVLKAMISKFAPLSQEMQIAVIADNESETLEPKDVTPEQPLISIDEPKENENSQSQISIPEDQAPQQENEEFVEELFPVGQA	−0.259

Below is a list of molecules. For each, state its recorded Cas9 with SSAP activity (normalized).
1. SSAP_250: SEQ ID NO: 419; Streptococcus pseudoporcinus (protein, listed as Streptococcus pseudoporcinus) ANQLTVVNTLQSDAVKEKFEAVMGEKANGFVSSVLSVVTNNNLLAKADFNSVYTSAMKAAVLDLPVEPSLGMAYIVPYKGKAQFQIGYKGLIQLAQRSGKVTKLNSGKIYKGQFKSYNALSEELDIDDIYTPKEDEEVVGYFGYMKLSNGFEKITYWTKERVEKHGKKYSQSYDSKFSPWQTNFDAMAEKTVLKSILSTYAPLTIEMQNANDFDNGKNTGIEPLEVKDVTPENDNESLLSDLLEDEPSVDAETGEIMENTELDLDYGSINAK
2. SSAP_4: SEQ ID NO: 166 (protein, Lambda) MSTALATLAGKLAERVGMDSVDPQELITTLRQTAFKGDASDAQFIALLIVANQYGLNPWTKEIYAFPDKQNGIVPVVGVDGWSRIINENQQFDGMDFEQDNESCTCRIYRKDRNHPICVTEWMDECRREPFKTREGREITGPWQSHPKRMLRHKAMIQCARLAFGFAGIYDKDEAERIVENTAYTAERQPERDITPVNDETMQEINTLLIALDKTWDDDLLPLCSQIFRRDIRASSELTQAEAVKALGFLKQKAAEQKVAA

# output
1: −1.341; 2: −0.474

Please give Cas9 with SSAP activity (normalized), item by item, for the list that follows.
1. SSAP_307: SEQ ID NO: 476; Acetobacterium dehalogenans (protein, Acetobacterium dehalogenans) CLRSWTRSFSNSVPLKIRFRLLYTAFLSQGSPLSSVNTTQSADKGSPIFFYAMFKTKDGGYGFEVMSVEDVRAHAKKYSQSFSSAYSPWSKNFEEMAKKTVLKKALKYAPLKSDFVRGIVVDETIKREISEDMYAAPSIEIEYEVDEDGVIQDEPTSNELTEAEK
2. SSAP_93: SEQ ID NO: 262; Morganella morganii (protein, listed as Morganella morganii) SNPPIAQADLQKAQGTAVKEKTKDQQLIQFINQPGMKAQLAAALPRHITPDRMIRIVTTEIRKTPSLATCDMQSFIGAVVQCSQLGLEPGNALGHAYLLPFGNGKAASGQSNVQLIIGYRGMIDLARRSGQIISISARTVREGDSFHFEYGLNEDLTHVPGENDSGPITHVYAVARLKEGGVQFEVMSFSQIEKVRDSSKAGKNGPWVSHWEEMAKKTVIRRLFKYLPVSIEMQRAVILDEKAEANVDQEHASIFEGEYETVSPE
3. SSAP_287: SEQ ID NO: 456; Leifsonia xyli subsp. xyli str. CTCB07 (protein, listed as Leifsonia xyli) AVKKNPTIEDYLIKYEPEFQRALGASMDAAKFAQDALTAIKQNPKIGHSDPRSLFGALFLAAQLKLPVGGPLAQFHLTTRTVKGNLTVVPIVGYGGYVQLIMNTGLYSRVSAFLIHAGDYFVTGANSERGEFYDFRRADSDRGEVKGVIAYAKVKGHNESSWVYIDAETMRAKHRPKYWESTPWADDAGEMFKKTGIRVLQKYLPKSVESLNVALAASADQAIVRKVDGVPDLDIQHDRDTETVAVPEQPVSVPQPGDET

# output
1. −2.185
2. 1.299
3. 0.091
